experiment-summary: Metabolic stability in rat liver microsomes assessed intrinsic clearance per mg protein at 1 uM measured up to 60 mins in presence of NADPH by LC/HRMS analysis
Type: ADME, Microsome
settings: 1 h
parameter: CLint (µL/min/mg)
One number for each entry, in µL/min/mg.

Completed entries (count: 3):
>>> measurement("O=C(O)C(F)(F)F.O=S(=O)(c1ccc(OCCCN2CCOCC2)cc1)N1c2ccccc2Oc2ccccc21")
239
>>> measurement("O=C(O)C(F)(F)F.O=S(=O)(c1ccc(OCCCN2CCCC2)cc1)N1c2ccccc2Oc2ccccc21")
83
>>> measurement("CNCCCOc1ccc(S(=O)(=O)N2c3ccccc3Oc3ccccc32)cc1.O=C(O)C(F)(F)F")
34

Please give CLint, item by item, for the list that follows.
1. CN(C)CCCOc1ccc(S(=O)(=O)N2c3ccccc3Oc3ccccc32)cc1.O=C(O)C(F)(F)F
2. O=C(O)C(F)(F)F.O=S(=O)(c1ccc(OCCCN2CCCCC2)cc1)N1c2ccccc2Oc2ccccc21
3. O=C(O)C(F)(F)F.O=S(=O)(c1ccc(OCCCn2ccnc2)cc1)N1c2ccccc2Oc2ccccc21

Resp:
1: 105; 2: 97; 3: 132
